Tested on: mouse leukemia L1210
Assay: Antitumor activity test on mouse leukemia L1210 in vivo
Settings: L1210, dose giving max (T/C), i.p. once a day for 5 days
Procedure: Mice of compound-non-treated group (control group) were administered with physiological saline solution in the same manner. The average survival times of the compound-treated group and the control group (abbreviated as T and C, respectively) were measured and T/C percentage (T/C×100) was calculated from the following equation. [formula] […]
metric_name: Opt. dose (mg/kg)
Note: unit mg/kg is implicit; provide only the numeric part.

Input CC1CCC[NH2+][Pt-2]([Cl])([Cl])[NH2+]1 (racemic) [Compound No. 4] . Output Opt. dose: 2

Input CC1(C)CC[NH2+][Pt-2]2([NH2+]C1)[O]C(=O)C(=O)[O]2 [Compound No. 20] . Output Opt. dose: 8

Input CCC1CC[NH2+][Pt-2]2([NH2+]C1)[O]C(=O)C(=O)[O]2 (racemic) [Compound No. 30] . Output Opt. dose: 8

Input CCC1CC[NH2+][Pt-2]([Cl])([Cl])[NH2+]C1 (racemic) [Compound No. 29] . Output Opt. dose: 2

Input O=C1[O][Pt-2]2([NH2+]CCCC[NH2+]2)[O]C(=O)C12CCOCC2 [Compound No. 3] . Output Opt. dose: 8

Input C[C@@H](CN)CCN.O=C([O-])C1(C(=O)[O-])CCC1.[Pt+2] (stereo in doubt) [15R] . Output Opt. dose: 32

Input CC1CC[NH2+][Pt-2]([Cl])([Cl])[NH2+]C1 (racemic) [Compound No. 13] . Output Opt. dose: 2

Input CC(N)CCCN.O=C([O-])CC(=O)[O-].[Pt+2] (centres unmarked) [Compound No. 6] . Output Opt. dose: 32
